Where these numbers come from: ChEMBL document CHEMBL3988442

# assayedSystem: Shiga toxin 2 (Escherichia coli O157:H7) (UniProt P09385+P09386)
# assay: E. coli 0.157:H7 Shiga Toxin SOP - stx2 screening assay
# Assay type: functional
# Design: scale not given: direction of the effect not stated beside the values
# protocolConditions: 30 µM
In this section, each of the compounds is paired with its reported Percent Effect.
Hi! Could you send only the number? It should be in %, unit omitted.

Example entries begin here.
{"columns": ["compound", "valueType", "unitSymbol", "reported"],
 "data": [
  ["CC(Cn1cccn1)NC(=O)Cc1cccs1 (configuration not stated)", "Percent Effect", "%", -16.8],
  ["CCC(C)(NCC(=O)Nc1ccccc1)c1nc(C)cs1 (configuration not stated)", "Percent Effect", "%", 15.8],
  ["CN(C)C(=O)[C@@H]1CCO[C@@H]2CCN(Cc3ccccc3)C[C@@H]21", "Percent Effect", "%", -27],
  ["CCS(=O)(=O)NCCNC(=O)c1cc(Cl)c2c(c1)OCCCO2", "Percent Effect", "%", -2.3],
  ["CNC(=O)[C@@]12CCO[C@@H]1CCN(S(=O)(=O)c1cccnc1)C2", "Percent Effect", "%", 7.61],
  ["O=C(c1n[nH]c2ccccc12)N1CCCC1c1noc(C2CC2)n1 (configuration not stated)", "Percent Effect", "%", 9.03],
  ["O=C(Nc1cccc(N2CCCC2)c1)C1CCCN1c1nccs1 (configuration not stated)", "Percent Effect", "%", -4.67],
  ["CC(C)CN1CCC2(CCN(Cc3ccoc3)CC2)C1=O", "Percent Effect", "%", -11.6]
]}

Under Shiga toxin 2 (Escherichia coli O157:H7) (UniProt P09385+P09386): Percent Effect value of Cc1nn(C)c2c(N3CCN(C(=O)C4CCC4)CC3)ncnc12 ?
-37.9

Please provide the recorded Percent Effect for CC(=O)Nc1nc(CN2CCCC2c2cnn(C)c2)cs1 (configuration not stated) , tested on Shiga toxin 2 (Escherichia coli O157:H7) (UniProt P09385+P09386).
-28.6

What value of Percent Effect on Shiga toxin 2 (Escherichia coli O157:H7) (UniProt P09385+P09386) does CC(C)N(C)Cc1cnc2n1CCN(C(=O)NC1CCCC1)C2 have?
-28.1

// lookup Percent Effect | system=Shiga toxin 2 (Escherichia coli O157:H7) (UniProt P09385+P09386) | key= CC(C)(C)c1cnc(CN2CCC(c3ccnn3CCO)CC2)o1
-1.72

---

# assayedSystem: Arginase-2, mitochondrial (Homo sapiens)
# assay: in vitro enzyme assay to detect the production of urea directly proportional to the activity of Arginase II; also: in the data most compounds retested in dose-response had high values
# Type: functional
# Design: scale not given: direction of the effect not stated beside the values
# protocolConditions: 33.3 µM
Measured Percent Effect accompanies every entry in the list below.
API: value field is a number in %; no unit string.

Some compounds with known Percent Effect results, for comparison:
{"columns": ["compound", "assayedSystem", "reported"],
 "data": [
  ["COCC(C)NC(=O)c1cn(C(C)(C)C)c2ncccc12 (centres undefined)", "Arginase-2, mitochondrial (Homo sapiens)", 0.443],
  ["O=C(Cc1ccccc1)N1CCN(Cc2noc(C3CC3)n2)CC1", "Arginase-2, mitochondrial (Homo sapiens)", -3.23],
  ["CN1CCC2(CC1)C(=O)N(CC1CC1)c1ccccc12", "Arginase-2, mitochondrial (Homo sapiens)", 3.65],
  ["COCC(=O)NC(C)Cc1cccc(Br)c1 (centres undefined)", "Arginase-2, mitochondrial (Homo sapiens)", -0.383],
  ["Cn1cc(N2CCC3(CCN(Cc4cccnc4)C3)C2=O)cn1 (centres undefined)", "Arginase-2, mitochondrial (Homo sapiens)", 1.59]
]}

Form field - read-out: Percent Effect; system: Arginase-2, mitochondrial (Homo sapiens); submitted item: COc1cc(CNCC(O)c2ccc(F)c(F)c2)cc2c1OCO2 (centres undefined)
0.185

Field: Percent Effect (Arginase-2, mitochondrial (Homo sapiens)). Entry: c1cc(CO[C@@H]2CC[C@H]3[C@H]2OCCN3CC2CCOCC2)ccn1
-0.319

What reported Percent Effect corresponds to CCOCC(O)CN1CCN(C(=O)Cc2ccccc2Cl)CC1 (centres undefined) on Arginase-2, mitochondrial (Homo sapiens)?
4.21

Enter reported Percent Effect observed with Arginase-2, mitochondrial (Homo sapiens) for Cn1ccnc1CN1CCC2(CC(=O)N(c3cncnc3)C2)C1 (centres undefined)
2.23

Lab request: please report Percent Effect under test system Arginase-2, mitochondrial (Homo sapiens) for O=C1NC2(CCNCC2)CC1c1cccnc1 (centres undefined)
2.1

Observed Percent Effect on Arginase-2, mitochondrial (Homo sapiens) for Cc1nnc([C@H]2CC[C@@H]3[C@@H](CCN3Cc3c(C)noc3C)O2)o1 , please.
-54.3

// fetch Arginase-2, mitochondrial (Homo sapiens) Percent Effect for Cc1ccccc1CC(C)NCc1c(C)nn(C)c1N1CCOCC1 (centres undefined)
-2.21

// fetch Arginase-2, mitochondrial (Homo sapiens) Percent Effect for CC(C)CN1C[C@H]2C[C@H](C(=O)Nc3cccnc3)[C@@H](C1)O2
2.87

GET /values?readout=Percent Effect&system=Arginase-2, mitochondrial (Homo sapiens)&item= CN1CCC2(CC1)CNC(=O)c1ccccc1O2
0.232

Under Arginase-2, mitochondrial (Homo sapiens): Percent Effect value of c1ccc(CN2C[C@@H]3CCCO[C@@H]3[C@H](Nc3ccccn3)C2)nc1 ?
3.23

Lookup: Percent Effect / Arginase-2, mitochondrial (Homo sapiens) / Cc1cccc(CN2C[C@@H]3CCCO[C@@H]3[C@H](NS(C)(=O)=O)C2)n1
-50.4

// map Cc1n[nH]c2c1C(c1ccc(O)c(Cl)c1)SCC(=O)N2 (centres undefined) to recorded Percent Effect (system: Arginase-2, mitochondrial (Homo sapiens))
-6.16

What value of Percent Effect on Arginase-2, mitochondrial (Homo sapiens) does CN(Cc1cncnc1)[C@H]1CN(CC2CC2)[C@@H]2CCCO[C@@H]21 have?
-51.8

Entry COCCN1C[C@@H]2CN(Cc3cccc(C)n3)C[C@@H]2C1=O , system Arginase-2, mitochondrial (Homo sapiens): what Percent Effect was measured?
2.28

State its Percent Effect on Arginase-2, mitochondrial (Homo sapiens): c1cncc(OC[C@@H]2CCC[C@@]23CNCCO3)c1
-3.5

---

# assayedSystem: Aspartate--tRNA(Asp/Asn) ligase (Mycobacterium tuberculosis (strain ATCC 25618 / H37Rv)); also: in the data most compounds retested in dose-response had high values
# assay: Assay for Asp RNA synthetase-1 from Mycobacterium tuberculosis
# Assay type: functional
# Design: scale not given: direction of the effect not stated beside the values
# protocolConditions: 30 µM
valueType: Percent Effect (%)
Please reply with the bare figure in % and do not write the unit itself.

Please review the entries below; each comes with its answer.
{"columns": ["compound", "valueType", "reported"],
 "data": [
  ["O=C(NCc1nnc2n1CCCC2)N1CCc2ccccc2C1", "Percent Effect", 1.56],
  ["Cn1nccc1C1CCN(CC(O)c2cccc(F)c2)CC1 (stereo unspecified)", "Percent Effect", -1.6],
  ["O=C(CCc1cc2n(n1)CCCN(Cc1ccccc1F)C2)NC1CC1", "Percent Effect", -1.95],
  ["CC(C)(CO)NC(=O)C1CCC(=O)N(Cc2ccc(Cl)cc2)C1 (stereo unspecified)", "Percent Effect", -3.12],
  ["COc1cccc(S(=O)(=O)N2CCn3cnc(COCC4CC4)c3C2)c1", "Percent Effect", 6.08]
]}

Percent Effect lookup needed for O=C(CN1CCC(N2CCNC2=O)CC1)NCC(F)(F)F , thanks.
-5.14

---

# assayedSystem: Shiga toxin 2 (Escherichia coli O157:H7) (UniProt P09385+P09386)
# assay: E. coli 0.157:H7 Shiga Toxin SOP - stx2 screening assay
# Format: functional
# Design: scale not given: direction of the effect not stated beside the values
# protocolConditions: 30 µM
valueType: Percent Effect (%)
Give the value in % but do not write % after it.

{"columns": ["compound", "Percent Effect / %"],
 "data": [
  ["CO[C@@H]1CC[C@@H](N(C)C(=O)COc2ccc(F)cc2)[C@H]1O", 28.3],
  ["Cc1nnc(NCc2ccccc2Cl)c(C#N)c1C", 10.3],
  ["CC(C)c1nn(C)c(N2CCOCC2)c1CNCC(=O)N(C)C", -14.4],
  ["Cc1nc(C2CCCN(C(=O)CO)C2)cc(N2CCOCC2)n1 (stereo unspecified)", 17.9]
]}

Field request: Percent Effect | item: Cn1cc(CCC(=O)N2CCN(Cc3ccncc3)CC2)cn1
1.29

What value of Percent Effect has been reported for the following compound? CCN1CCN(S(=O)(=O)c2cc(C)c(Cl)cc2Cl)CC1
-47.6

What value of Percent Effect has been recorded for this entry: CC(C)(N)C(=O)N1CCCC1c1cncc(Oc2ccc(F)cc2)n1 (stereo unspecified)
-12.5

Need Percent Effect, item O=C(O)c1ccc2ccc(N3CCN(CC4CC4)CC3)n2c1
-15.7

Need Percent Effect of CCc1nc(C)c([C@H]2CN(C)C[C@@H]2C(=O)NCCc2cnccn2)[nH]1 , thanks.
-9.87

What value of Percent Effect has been recorded for this entry: O=C1CC2(CCCNC2)C(=O)N1Cc1ccc(F)cc1 (stereo unspecified)
-4.45

# lookup: Percent Effect of CNC(=O)CSc1cnn(CC(=O)Nc2cccc(Cl)c2C)c(=O)c1Cl
-8.91
